System: HCoV-229E
CONDITION: 2 h
pIC50: −log10 of the molar value. Where a SMILES comes first, the peptide text is derived from it. [ ]: non-standard residue; d: D form. Nle = CCCC[C@H](N)C(=O)O
ASSAY_METRIC: pIC50

COMPOUND	ASSAY_METRIC	REPORTED_RESULT
CCCC[C@H](NC(=O)[C@@H](CC(C)C)NC(=O)[C@H](Cc1ccccc1)NC(=O)[C@H](CCCCN)NC(=O)[C@H](CO)NC(=O)[C@H](Cc1ccccc1)NC(=O)[C@H](Cc1c[nH]c2ccccc12)NC(=O)[C@@H]1CCCN1C(=O)[C@@H](NC(=O)[C@@H](N)Cc1ccccc1)C(C)C)C(=O)N[C@@H](CCCNC(=N)N)C(=O)N[C@H](C(=O)N[C@@H](CC(C)C)C(N)=O)[C@@H](C)CC [TL6] (H-FVPWFSKF[dL][Nle]RIL-NH2)	pIC50	5.68
